# Target Or System: T1, human GM-CSF (human, UniProt P04141 18-144)
# T1 construct: mature; the preparation is named under assay or readout; also called hGM-CSF; recombinant human GM-CSF
# T1 sequence (P04141 18-144): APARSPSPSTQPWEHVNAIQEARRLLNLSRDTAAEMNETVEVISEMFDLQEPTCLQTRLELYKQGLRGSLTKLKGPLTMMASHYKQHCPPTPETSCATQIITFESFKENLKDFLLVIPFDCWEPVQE
# Protocol Description: solution equilibrium titration (SET, ECL/BioVeris), Fab with human GM-CSF (Leucomax) in solution
Recorded Metric: Kd (nM)
Hi! Could you send only the number? It should be in nM, unit omitted.

{"Binder": "MOR04283 Fab (Fab, V domains shown, Fab with FLAG and 6xHis tags) VH: QVQLVQSGAEVKKPGSSVKVSCKASGGTFNSFLISWVRQAPGQGLEWMGAISPWDGVTGYAQKFQGRVTITADESTSTAYMELSSLRSEDTAVYYCARKFISDSWGQGTLVTVSS VL: DIQMTQSPSSLSASVGDRVTITCRASQTINNYLNWYQQKPGKAPKLLIYTASNLQSGVPSRFSGSGSGTDFTLTISSLQPEDFAVYYCQQYSGSPMTFGQGTKVEIKR", "Kd (nM)": 0.113}

Now, please, on to the next binder.
q: Query: Kd; subject: MOR04290 Fab (Fab, V domains shown, Fab with FLAG and 6xHis tags) VH: QVQLVESGGGLVQPGGSLRLSCAASGFTFSSYWMNWVRQAPGKGLEWVSGIESKWAGGATYYAAGVKGRFTISRDNSKNTLYLQMNSLRAEDTAVYYCARGFGTDFWGQGTLVTVSS VL: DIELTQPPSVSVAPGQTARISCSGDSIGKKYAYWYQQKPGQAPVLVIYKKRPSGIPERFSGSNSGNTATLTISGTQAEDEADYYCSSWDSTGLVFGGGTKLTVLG
a: 0.0111
